# Test system: Klebsiella pneumoniae
# test summary: Antibacterial activity against Klebsiella pneumoniae ATCC 33495 assessed as reduction in bacterial growth by microbroth dilution assay
# Type: functional
Positions of bridges follow the written chain, without caps; N, C: chain ends. Non-standard residues stand in square brackets, D forms with d. Residues, ends and D or L forms follow the SMILES beside them. ξ: configuration not given here. *: point of attachment. Hexanoyl(4ξ-Me) = CCC(C)CCC(=O)*; dOrn = NCCC[C@@H](N)C(=O)O; Orn = NCCC[C@H](N)C(=O)O
measurement kind: MIC

CCC(C)CCC(=O)N[C@H](CC(N)=O)C(=O)N[C@@H](Cc1ccccc1)C(=O)N[C@H](Cc1c[nH]c2ccccc12)C(=O)N[C@H](CCCN)C(=O)N[C@@H](CCCN)C(=O)NCC(=O)N[C@H](CCCN)C(=O)N[C@@H](Cc1c[nH]c2ccccc12)C(=O)N[C@@H]1C(=O)N[C@@H]([C@@H](C)CC)C(=O)NCC(=O)N[C@@H](CO)C(=O)O[C@@H]1C (stereo partly drawn)	> 32 µg/mL

Prompt: // lookup MIC for CCC(C)CCC(=O)N[C@H](CC(N)=O)C(=O)N[C@H](Cc1ccc(O)cc1)C(=O)N[C@H](Cc1c[nH]c2ccccc12)C(=O)N[C@H](CCCN)C(=O)N[C@@H](CCCN)C(=O)NCC(=O)N[C@H](CCCN)C(=O)N[C@@H](Cc1c[nH]c2ccccc12)C(=O)N[C@@H]1C(=O)N[C@@H]([C@@H](C)CC)C(=O)NCC(=O)N[C@@H](CO)C(=O)O[C@@H]1C (stereo partly drawn) ({Hexanoyl(4ξ-Me)}-[dN][dY][dW][dOrn][Orn]G[dOrn]WTIGS; ester 9-C)
Completion: 2 µg/mL

Prompt: Try this molecule too: CCC(C)CCC(=O)N[C@H](CC(N)=O)C(=O)N[C@H](CCCCN)C(=O)N[C@H](Cc1c[nH]c2ccccc12)C(=O)N[C@H](CCCN)C(=O)N[C@@H](CCCN)C(=O)NCC(=O)N[C@H](CCCN)C(=O)N[C@@H](Cc1c[nH]c2ccccc12)C(=O)N[C@@H]1C(=O)N[C@@H]([C@@H](C)CC)C(=O)NCC(=O)N[C@@H](CO)C(=O)O[C@@H]1C (stereo partly drawn)
Completion: > 32 µg/mL
